# Test system: K-562
# experiment.notes: NCI-60 screen (SRB)
# Format: cell-based, human
# setup.conditions: K-562 (Leukemia), 10 µM, 48 h; negative = cell death vs time zero
measured.quantity: percent cell growth (%)
The response must be a number in % with no trailing unit.

Worked cases, answers included:
compound	measured.quantity	unit.of.measure	number
CC/N=C1\NC(=O)/C(=C\c2c[nH]c3ncccc23)S1	percent cell growth	%	26.3
Cl.O=C1NC(=NCCc2ccccc2)SC1=Cc1c[nH]c2ncccc12 (mixture of isomers) [DJ4-HCl]	percent cell growth	%	28.5
O=C1N/C(=N\CCc2ccccc2)S/C1=C/c1c[nH]c2ncccc12	percent cell growth	%	29.9

Shifting focus to the compound that follows.
Look up and report measured percent cell growth for this entry: "C=CC/N=C1\NC(=O)/C(=C\c2c[nH]c3ncccc23)S1"
42.1
